# Tested on: VEGF
# procedure details: Evaluation of VEGF protein secretion level (Human VEGF ELISA) in ARPE-19 cell medium under hypoxic conditions
# Type: cell-based
# study conditions: ARPE-19 cells; pretreated 2 hours, 24 hours hypoxic conditions; secreted VEGF in medium supernatant by ELISA; concentration range reducing VEGF by 50% vs untreated control; read-out: IC50 VEGF
pIC50: −log10 of the molar value.
Recorded measurements of pIC50, one per entry

>>> data_value("O=C(NCc1cc(F)cc(Nc2ccc(F)cc2)c1)c1ncnc2nc(C3CCCC3)[nH]c12")
"6.00 to 7.00"

Then there is this compound:
Need pIC50 of O=C(NCc1cc(F)cc(-c2cnn(-c3ccc(F)cc3)c2)c1)c1ncnc2nc(C3CC4CC4C3)[nH]c12 (stereo not shown) , thanks.
6.00 to 7.00
